assay: Concentration and elimination of ADP and its metabolites in liver, kidney, muscle, fat/skin after oral ^3H-ADP for 7 d; assay type: in vivo, swine; details: swine, fat, oral, 5 mg/kg b.w.
endpoint_label: concentration at 7 d (ng/g)
Use ng/g as the unit, but write only the number.

COc1cc(Cc2cnc(N)nc2N)cc(OC)c1N(C)C yielded concentration at 7 d of 150

* * *

Recorded measurements of concentration at 7 d, one per entry
assay: Concentration and elimination of ADP and its metabolites in liver, kidney, muscle, fat/skin after oral ^3H-ADP for 7 d; format: in vivo, rats; details: rat, liver, oral, 5 mg/kg b. w.
Use ng/g as the unit, but write only the number.

structure_string=CNc1c(OC)cc(Cc2cnc(N)nc2N)cc1OC units_of_measure=ng/g observed_result=80

Please examine the following record next.
COc1cc(Cc2cnc(N)nc2N)cc(OC)c1N(C)C yielded concentration at 7 d of 560
